- tested-target: T1, human CLDN18.2 (human)
- T1 construct: also called hCLDN18.2; Claudin-18 splice variant 2
- test-name: FACS, NUGC4 cells
We begin with a simple list: items and their reported EC50.
Field note: include the unit after the figure.

binder	readout-name	observed
12E9-C (antibody, human IgG1, V domains shown, also called chimeric 12E9) VH: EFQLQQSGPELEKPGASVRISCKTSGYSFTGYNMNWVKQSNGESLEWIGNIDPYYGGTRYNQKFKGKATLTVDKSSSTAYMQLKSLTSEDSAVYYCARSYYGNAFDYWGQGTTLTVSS VL: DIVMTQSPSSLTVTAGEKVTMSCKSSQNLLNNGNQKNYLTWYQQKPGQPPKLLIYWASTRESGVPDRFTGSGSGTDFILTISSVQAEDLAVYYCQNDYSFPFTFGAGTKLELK	EC50	9.37 µg/mL

Query block: What EC50 value was documented for this binder, 7C12-C (antibody, human IgG1, V domains shown, also called chimeric 7C12) VH: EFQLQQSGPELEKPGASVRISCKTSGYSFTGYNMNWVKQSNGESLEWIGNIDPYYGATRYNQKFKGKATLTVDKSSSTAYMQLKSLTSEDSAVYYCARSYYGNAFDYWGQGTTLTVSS VL: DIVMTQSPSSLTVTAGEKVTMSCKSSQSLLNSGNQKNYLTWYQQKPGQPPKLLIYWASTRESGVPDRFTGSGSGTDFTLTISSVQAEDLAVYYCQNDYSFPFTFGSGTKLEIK ?
Result block: 13 µg/mL

Query block: Note, next up: 59A9-C (antibody, human IgG1, V domains shown, also called chimeric 59A9) VH: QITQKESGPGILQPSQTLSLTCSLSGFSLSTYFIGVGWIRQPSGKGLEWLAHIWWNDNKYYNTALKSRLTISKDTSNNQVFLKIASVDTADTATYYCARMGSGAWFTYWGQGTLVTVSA VL: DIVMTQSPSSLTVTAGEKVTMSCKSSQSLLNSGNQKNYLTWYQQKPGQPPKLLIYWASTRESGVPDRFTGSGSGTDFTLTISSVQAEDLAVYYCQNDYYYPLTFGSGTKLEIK
Result block: 19.1 µg/mL

Query block: Note, next up: 18B10-C (antibody, human IgG1, V domains shown, also called chimeric 18B10) VH: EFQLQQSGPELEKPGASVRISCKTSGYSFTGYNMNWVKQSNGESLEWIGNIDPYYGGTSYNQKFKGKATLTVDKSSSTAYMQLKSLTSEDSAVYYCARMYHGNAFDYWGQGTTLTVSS VL: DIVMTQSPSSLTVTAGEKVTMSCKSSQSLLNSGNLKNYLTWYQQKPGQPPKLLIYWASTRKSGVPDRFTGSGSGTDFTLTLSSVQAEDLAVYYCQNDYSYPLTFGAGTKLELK
Result block: 7.8 µg/mL
